- TEST_SUMMARY: Oral bioavailability of hydrocodone conjugates in rats, LC/MS/MS
- EXPERIMENTAL_PARAMETERS: oral, 5 mg/kg dose, relative to hydrocodone bitartrate
Where a SMILES comes first, the peptide text is derived from it. The star is where a group is joined. X1 = COc1ccc2c3c1O[C@H]1C(O*)=CC[C@H]4[C@@H](C2)N(C)CC[C@]314
PARAMETER_MEASURED: Percent HC (AUC)

{"columns": ["COMPOUND", "ASSAY_VALUE"],
 "data": [
  ["CC[C@H](C)[C@H](NC(=O)[C@H](Cc1ccccc1)NC(=O)[C@H](Cc1ccccc1)NC(=O)[C@H](CCC(=O)O)NC(=O)[C@@H](N)CCC(=O)O)C(=O)OC1=CC[C@H]2[C@H]3Cc4ccc(OC)c5c4[C@@]2(CCN3C)[C@H]1O5 [EEFFI[SEQ ID NO: 5]-HC] (H-EEFFI-X1)", "41%"],
  ["CC[C@H](C)[C@H](NC(=O)[C@H](Cc1ccc(O)cc1)NC(=O)[C@@H](N)Cc1ccc(O)cc1)C(=O)OC1=CC[C@H]2[C@H]3Cc4ccc(OC)c5c4[C@@]2(CCN3C)[C@H]1O5 [YYI-HC, Tyr-Tyr-Ile-Hydrocodone]", "46%"],
  ["CC[C@H](C)[C@H](NC(=O)[C@H](CC(=O)O)NC(=O)[C@@H](N)CC(=O)O)C(=O)OC1=CC[C@H]2[C@H]3Cc4ccc(OC)c5c4[C@@]2(CCN3C)[C@H]1O5 [DDI-HC, Asp-Asp-Ile-Hydrocodone]", "113%"],
  ["CC[C@H](C)[C@H](NC(=O)[C@H](Cc1ccccc1)NC(=O)[C@H](Cc1ccccc1)NC(=O)[C@H](Cc1ccc(O)cc1)NC(=O)[C@@H](N)Cc1ccc(O)cc1)C(=O)OC1=CC[C@H]2[C@H]3Cc4ccc(OC)c5c4[C@@]2(CCN3C)[C@H]1O5 [YYFFI[SEQ ID NO: 8]-HC] (H-YYFFI-X1)", "86%"]
]}
